- Test system: Tyrosine-protein kinase ABL1 (Homo sapiens), P00519 [E255K]
- Sequence (P00519 whole entry E255K): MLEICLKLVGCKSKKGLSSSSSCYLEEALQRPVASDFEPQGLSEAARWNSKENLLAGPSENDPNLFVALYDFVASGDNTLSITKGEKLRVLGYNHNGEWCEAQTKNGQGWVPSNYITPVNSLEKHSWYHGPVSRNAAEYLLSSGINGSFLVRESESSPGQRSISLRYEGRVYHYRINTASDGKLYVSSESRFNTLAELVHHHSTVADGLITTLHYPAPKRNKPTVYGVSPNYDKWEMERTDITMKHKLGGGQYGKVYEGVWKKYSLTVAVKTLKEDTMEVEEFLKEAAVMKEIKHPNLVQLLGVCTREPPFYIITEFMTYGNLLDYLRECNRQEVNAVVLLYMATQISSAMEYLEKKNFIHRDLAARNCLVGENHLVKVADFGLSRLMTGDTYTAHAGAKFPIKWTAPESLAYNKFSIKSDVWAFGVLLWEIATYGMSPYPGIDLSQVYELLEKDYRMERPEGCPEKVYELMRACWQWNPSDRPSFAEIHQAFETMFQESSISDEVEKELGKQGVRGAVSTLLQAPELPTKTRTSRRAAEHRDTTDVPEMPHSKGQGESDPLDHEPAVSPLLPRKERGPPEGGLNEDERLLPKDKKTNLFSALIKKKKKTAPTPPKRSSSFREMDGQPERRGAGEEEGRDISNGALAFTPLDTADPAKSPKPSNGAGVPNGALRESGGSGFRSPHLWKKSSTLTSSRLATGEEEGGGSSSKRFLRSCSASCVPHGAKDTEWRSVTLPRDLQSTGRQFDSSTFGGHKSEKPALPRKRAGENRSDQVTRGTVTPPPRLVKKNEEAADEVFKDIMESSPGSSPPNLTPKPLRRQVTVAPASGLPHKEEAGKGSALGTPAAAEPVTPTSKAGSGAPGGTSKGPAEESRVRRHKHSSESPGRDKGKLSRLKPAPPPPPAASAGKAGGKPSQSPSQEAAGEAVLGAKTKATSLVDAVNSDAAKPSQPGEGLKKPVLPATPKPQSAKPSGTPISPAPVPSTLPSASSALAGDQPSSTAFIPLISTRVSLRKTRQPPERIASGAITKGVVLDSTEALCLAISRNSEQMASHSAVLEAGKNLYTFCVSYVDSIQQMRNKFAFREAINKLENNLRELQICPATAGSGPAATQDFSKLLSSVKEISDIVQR
- Condition Label: at 0.1 µM
Measured Endpoint: inhibition

Known results for molecules:
> print(dat)
                                   molecule  measured.endpoint  result
1  CC1=C(C(=O)Nc2ccc3[nH]nc(C)c3c2)C(c2ccc(C(F)(F)F)cc2)CC(=O)N1 (stereo not given)         inhibition   2.57%
2  OCCCNc1nccc(-c2c(-c3ccc(F)cc3)nn3cc(C(F)(F)F)ccc23)n1         inhibition   3.05%
3           CNC(=O)c1cncc(/C=C/c2ccccc2C)c1         inhibition   4.47%
4  COc1cc(N2CCN(C(C)C)CC2)ccc1Nc1nc(Nc2cccc(F)c2C(=O)O)c2cc[nH]c2n1         inhibition   3.61%

As a next step, examine the molecule that follows.
**Query** Bench note: what inhibition did Cc1nnc(-c2cccc(-c3ccc(C(=O)NCC4CC4)cc3)c2)o1 show?
**Result** 4.38%
